test system: MDA-MB-468 breast; test: NCI-60 one-dose screen, 48 h; conditions: 10 µM
This is part of a sample that, as a whole, favours compounds with a hit. Of some 83,000 tested, about 20% had one in any assay. Active and inactive are the calls of the source. The calls were made as follows: active = growth percent below 10; inactive = the rest.
// one of label 1 (active), label 0 (inactive), no free text

- substanceSmiles: "COc1ccc2c(c1)N=C(C(=O)O)/C2=C/c1sc(Nc2ccc(O)cc2)nc1O"
  labelClass: "label 0"
- substanceSmiles: "Cc1noc2c(Cc3ccc([N+](=O)[O-])cc3)nn(CC(=O)N/N=C/c3ccc(Cl)cc3)c(=O)c12"
  labelClass: "label 1"
- substanceSmiles: "CN1CCN(Cc2ccc(NC(=O)c3cncc(C#Cc4cnc5ccc(N[C@@H]6CCOC6)nn45)c3)cc2C(F)(F)F)CC1"
  labelClass: "label 1"
- substanceSmiles: "Cc1ccc(S(=O)(=O)c2nc(-c3ccccc3)oc2S(=O)(=O)CC(=O)N2CCCC2)cc1"
  labelClass: "label 1"
- substanceSmiles: "CC(=O)Nc1ccc(-n2cnc3cc(-c4ccc(NS(C)(=O)=O)cc4)ccc32)cc1"
  labelClass: "label 0"
- substanceSmiles: "CN1CCCN(Cc2ccc(C(=O)Nc3cccc(Nc4ccc5cc(O)ccc5n4)c3)cc2C(F)(F)F)CC1"
  labelClass: "label 1"
- substanceSmiles: "O=C(Nc1ccccc1)Nc1nc2ccccc2s1"
  labelClass: "label 1"
- substanceSmiles: "Cc1ccc(NC(=O)c2ccc(-n3c(=O)[nH]c4ccccc4c3=O)cc2)cc1"
  labelClass: "label 0"

Please share the test call associated with Brc1ccc(/C=N/Nc2ncnc3sc4c(c23)CCN(Cc2ccccc2)C4)cc1 .
label 1

Dear colleague, could you share the recorded outcome for O=c1[nH]n(C(=S)N/N=C/c2ccc(F)cc2)c(=O)c2ccccc12 when you have a moment?
label 0

Record request — test call for O=C(Nc1ccc(OCc2ccccc2)cc1)Nc1ccc(Cl)c(C(F)(F)F)c1
label 1

// return assay outcome for COc1cnc2c(c1)C(=O)c1c-2n(CCCNC(C)C)c(=O)c2cc(OC)c(OC)cc12
label 1

====

test system: U251 CNS; test: NCI-60 one-dose screen, 48 h (100 = growth as untreated, 0 = no growth, -100 = all killed); details: 10 µM
This is part of a sample that, as a whole, favours compounds with a hit. Of some 83,000 tested, about 20% had one in any assay.
I'd appreciate it if you could supply growth values for the items below.
One number for each entry, in %.

- substanceSmiles: "O=C1NC(=NC23CC4CC(CC(C4)C2)C3)N/C1=C\\c1ccc2ncsc2c1"
  valueType: "growth"
  recordedValue: 10.2
- substanceSmiles: "Cc1ccc(C(=O)CSc2nnc(-c3c[nH]c4ccccc34)n2-c2ccccc2)cc1"
  valueType: "growth"
  recordedValue: 9.78
- substanceSmiles: "COc1cccc(/C=N/NC(=O)c2ccc3nc(-c4ccc(Cl)cc4)[nH]c3c2)c1O"
  valueType: "growth"
  recordedValue: -90.8
- substanceSmiles: "COc1ccc(C(=O)/C=C/c2ccc(Cl)c(C(F)(F)F)c2)cc1S(N)(=O)=O"
  valueType: "growth"
  recordedValue: -68.7
- substanceSmiles: "O=C(NCCCCCCCCCC[P+](c1ccccc1)(c1ccccc1)c1ccccc1)c1ccc(-n2nc(-c3ccccc3O)nc2-c2ccccc2O)cc1"
  valueType: "growth"
  recordedValue: -50

Respectfully, I request growth for each entry included below.
1. CCOc1ccc(/C=N/NC(=O)Cn2nc(Cc3ccc([N+](=O)[O-])cc3)c3onc(C)c3c2=O)cc1
2. CC1(C)CC[C@]2(C(=O)NCCCNCCCCNCCCN)CC[C@]3(C)C(=CC[C@@H]4[C@@]5(C)Cc6c([nH]c7ccccc67)C(C)(C)[C@@H]5CC[C@]43C)[C@H]2C1
3. COc1ccc(/C=C/C(=O)c2ccc(S(=O)(=O)NCCNc3nc(Nc4ccc(F)cc4)nc(N(C)C)n3)cc2)cc1

1: -66; 2: 89.5; 3: 20.8
